Field: Ki. System: Alpha-1D adrenergic receptor (Homo sapiens, UniProt P25100). Provenance: assorted publications.
Sequence (P25100 whole entry): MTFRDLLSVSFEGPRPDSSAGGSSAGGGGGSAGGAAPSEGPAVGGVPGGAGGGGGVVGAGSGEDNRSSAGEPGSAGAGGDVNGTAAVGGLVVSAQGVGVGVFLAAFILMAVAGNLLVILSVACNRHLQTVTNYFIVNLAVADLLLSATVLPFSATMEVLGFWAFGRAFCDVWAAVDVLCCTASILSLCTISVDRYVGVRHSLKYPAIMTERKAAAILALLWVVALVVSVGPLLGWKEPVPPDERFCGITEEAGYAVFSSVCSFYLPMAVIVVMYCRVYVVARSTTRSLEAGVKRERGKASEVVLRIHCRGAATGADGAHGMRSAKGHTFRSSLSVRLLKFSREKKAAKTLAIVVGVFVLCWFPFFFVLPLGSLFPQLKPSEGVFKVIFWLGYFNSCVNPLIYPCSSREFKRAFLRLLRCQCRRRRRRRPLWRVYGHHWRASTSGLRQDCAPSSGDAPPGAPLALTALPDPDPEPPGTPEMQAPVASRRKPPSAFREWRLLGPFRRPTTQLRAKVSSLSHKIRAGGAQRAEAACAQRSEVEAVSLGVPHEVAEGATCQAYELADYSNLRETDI
Number in nM, nothing else.

Answered cases to consult:
CC(C)Oc1ccccc1N1CCN([C@H]2CC[C@@H](NS(=O)(=O)c3ccccc3F)CC2)CC1 : 2.4
CC(C)Oc1ccccc1N1CCN(Cc2cc(CN3CCCCC3=O)n(C)n2)CC1 : 52
COc1cc2nc(N3CCN(C(=O)C4COc5ccccc5O4)[C@H]4CCCC[C@H]43)nc(N)c2cc1OC (relative stereo) : 0.17

Can you look up Ki on Alpha-1D adrenergic receptor (Homo sapiens, UniProt P25100) for `COc1ccc2c(c1OCCNC[C@@H]1COc3ccccc3O1)NCC2` ?
83.2

Can you look up Ki on Alpha-1D adrenergic receptor (Homo sapiens, UniProt P25100) for `COc1ccc2cc[nH]c2c1OCCNC[C@@H]1COc2ccccc2O1` ?
1350

Can you look up Ki on Alpha-1D adrenergic receptor (Homo sapiens, UniProt P25100) for COc1ccccc1OCCNC[C@H]1OCCO[C@@H]1c1ccccc1 (relative stereo) ?
95.5

Can you look up Ki on Alpha-1D adrenergic receptor (Homo sapiens, UniProt P25100) for `c1ccc(OCCNCCOC(c2ccccc2)c2ccccc2)cc1` ?
1.2

Can you look up Ki on Alpha-1D adrenergic receptor (Homo sapiens, UniProt P25100) for `OCc1cc(CN2CCN(c3ccccc3Oc3ccccc3)CC2)on1` ?
3060

* * *

Field: Ki. System: Alpha-1D adrenergic receptor (Homo sapiens). Provenance: assorted publications.
Number in nM, nothing else.

Answered cases to consult:
c1ccc(OCCNCC2CCOC(c3ccccc3)(c3ccccc3)O2)cc1 (stereo not drawn) : 5.01
COc1cccc(OC)c1SCCNCCOc1ccccc1OCc1ccccc1 : 0.178
CC(C)Oc1ccccc1N1CCN(CCCNC(=O)c2ccc3c(c2)C(=O)N(c2cccc(F)c2)C3=O)CC1 : 22
COc1cccc(OC)c1OCCNC[C@H]1COc2cccc(Cl)c2O1.Cl : 0.708
CC1(C)CC(=O)N(CCN2CCN(c3ccccc3Cl)CC2)C(=O)C1 : 23.4
CO/C(O)=C1\C(C)=NC(C)=C(C(=O)NCCCN2CCC(c3ccccc3)CC2)C1c1ccc(Cl)c([N+](=O)[O-])c1 (stereo not drawn) : 126
O=C1CC2(CCCC2)CC(=O)N1CCN1CCN(c2cc(F)ccc2Cl)CC1 : 0.18
COc1cccc2c1CCCC2CCCN1CCN(c2ccccn2)CC1 (stereo not drawn) : 5.95

Can you look up Ki on Alpha-1D adrenergic receptor (Homo sapiens) for `O=C1c2ccccc2CC12CCN(CCc1cccc3ccccc13)CC2` ?
149

Can you look up Ki on Alpha-1D adrenergic receptor (Homo sapiens) for `COc1cccc(C)c1OCCNCCOc1ccccc1OCc1ccccc1` ?
0.912

Can you look up Ki on Alpha-1D adrenergic receptor (Homo sapiens) for `CN(CCNc1cc(Cl)ccc1Cl)CCN1C(=O)CC2(CCCC2)CC1=O` ?
674

Can you look up Ki on Alpha-1D adrenergic receptor (Homo sapiens) for CC(C)Oc1ccccc1N1CCN(CC(O)CNC(=O)c2ccc3c(c2)C(=O)N(c2ccc(C(C)(C)C)cc2)C3=O)CC1 (stereo not drawn) ?
75

* * *

Field: Ki. System: Alpha-1D adrenergic receptor (Homo sapiens, UniProt P25100). Provenance: assorted publications.
Lab note - cut at 50 nM for Ki: label 1 if strictly below, label 0 if not.

Some entries whose results are on file:
COC(=O)C1=C(C)NC(=O)N(C(=O)NCCCN2CCC(C)(c3ccccc3)CC2)C1c1ccc(F)c(F)c1 (centres undefined) : label 0
COc1ccccc1OCCNC[C@H]1CCC(c2ccccc2)(c2ccccc2)[C@@H]1O (relative stereo) : label 1
COc1cccc(OC)c1OCCNC[C@H]1COc2cccc(O)c2O1.Cl : label 1
COc1ccc(-c2ccccc2)cc1OCCNC[C@@H]1COc2ccccc2O1 : label 0
O=S1(=O)CCC(NCCOc2cc(F)ccc2Cl)c2ccccc21 (centres undefined) : label 1
COc1ccccc1OCCNCC[C@@H]1CO[C@H](C(c2ccccc2)c2ccccc2)O1 (relative stereo) : label 1
N#Cc1ccc(Cl)cc1Cn1cc(Cl)cc(C(N)=O)c1=N : label 1
CC(C)Oc1ccccc1N1CCN(CC(O)CNC(=O)c2ccc3c(c2)C(=O)N(c2ccc(Cl)cc2)C3=O)CC1 (centres undefined) : label 0

Ki strictly < 50 nM for this compound? `COc1ccccc1N1CCN(CCN2CCC3(CCCC3)CC2=O)CC1`
label 1

Ki strictly < 50 nM for this compound? COc1ccccc1N1CCN(C[C@H]2OCCO[C@@H]2c2ccccc2)CC1 (relative stereo)
label 0

Ki strictly < 50 nM for this compound? `CSc1ccc(F)cc1NCC1=NCCN1`
label 1
